system: P. falciparum (W2); test: Antimalarial activity in vitro against P. falciparum cultivated in red cells, 72 hours; format: cell-based; conditions: P. falciparum (W2) in vitro, Experiment 1, approximated
measured_parameter: Inhibiting concentration (IC) 40%, Experiment 1 (ng/mL)
Field: numeric (ng/mL). Do not append units.

[ask] Consider the compound C[C@H]1[C@H](OC(=O)CCC(=O)O)O[C@@H]2O[C@@]3(C)CC[C@H]4[C@H](C)CC[C@@H]1[C@@]24OO3 [B, artesunate] and give its recorded Inhibiting concentration (IC) 40%, Experiment 1.
[reply] 0.37

[ask] Retrieve Inhibiting concentration (IC) 40%, Experiment 1 measured for CC1CCC2C(C)C(OC(=O)CCC(=O)O)OC3OC4(C)CCC1C32OO4.OC(c1cc(C(F)(F)F)nc2c(C(F)(F)F)cccc12)C1CCCCN1 (stereo not shown) [A, salt of artesunate and mefloquine] and print it.
[reply] 0.83

[ask] Give the value of Inhibiting concentration (IC) 40%, Experiment 1 reported for the following: CCN(CC)CCCC(C)Nc1ccnc2cc(Cl)ccc12 (stereo not shown)
[reply] 41.1

[ask] Entry OC(c1cc(C(F)(F)F)nc2c(C(F)(F)F)cccc12)C1CCCCN1 (stereo not shown) needs its Inhibiting concentration (IC) 40%, Experiment 1 filled in; supply it.
[reply] 0.93

Recorded values, source patent US8071777B2.
